system.under.test: D(3) dopamine receptor (Homo sapiens, UniProt P35462)
Sequence (P35462 whole entry): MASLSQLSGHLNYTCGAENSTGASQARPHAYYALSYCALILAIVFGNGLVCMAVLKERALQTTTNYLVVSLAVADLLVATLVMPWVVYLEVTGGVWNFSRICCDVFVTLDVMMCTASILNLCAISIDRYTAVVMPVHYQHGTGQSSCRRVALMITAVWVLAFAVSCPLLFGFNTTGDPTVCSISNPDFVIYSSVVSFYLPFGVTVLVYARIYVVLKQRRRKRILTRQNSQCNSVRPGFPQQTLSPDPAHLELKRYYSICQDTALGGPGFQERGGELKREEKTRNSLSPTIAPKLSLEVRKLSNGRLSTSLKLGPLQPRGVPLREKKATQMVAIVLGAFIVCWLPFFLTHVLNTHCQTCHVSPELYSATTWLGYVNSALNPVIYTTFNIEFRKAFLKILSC
method.notes: DRUGMATRIX: Dopamine D3 radioligand binding (ligand: [3H] Spiperone)
Type: cell membranes, CHO, Membrane
setup.conditions: cho
parameter: IC50

// below: answered molecules
molecule	IC50
CN(C)CCCC1(c2ccc(F)cc2)OCc2cc(C#N)ccc21 (centres undefined) [CITALOPRAM]	Not Active
CC(C)[C@H](N)C(=O)OCCOCn1cnc2c(=O)nc(N)[nH]c21 [VALACYCLOVIR]	Not Active
O=P1(NCCCl)OCCCN1CCCl (centres undefined) [IFOSFAMIDE]	Not Active
CC(=O)[C@@]1(O)CC[C@H]2[C@@H]3C[C@H](C)C4=CC(=O)C=C[C@]4(C)[C@@]3(F)[C@@H](O)C[C@@]21C [FLUOROMETHOLONE]	Not Active
CC(CCc1ccccc1)NCC(O)c1ccc(O)c(C(N)=O)c1 (centres undefined) [LABETALOL]	Not Active
Nc1ccc(S(N)(=O)=O)cc1 [SULFANILAMIDE]	Not Active

Record Cc1[nH]cnc1CN1CCc2c(c3ccccc3n2C)C1=O [ALOSETRON] . Reported IC50: Not Active

Query Cn1cnc([N+](=O)[O-])c1Sc1ncnc2nc[nH]c12 [AZATHIOPRINE] yields IC50 of Not Active

// field: IC50; key: COc1c(N2CCNC(C)C2)c(F)cc2c(=O)c(C(=O)O)cn(C3CC3)c12 (centres undefined) [GATIFLOXACIN] ; value = Not Active

IC50 reading for Clc1ccc(C(c2ccccc2Cl)C(Cl)Cl)cc1 (centres undefined) [MITOTANE] : Not Active

Looking up CCc1cccc2c3c([nH]c12)C(CC)(CC(=O)O)OCC3 (centres undefined) [ETODOLAC] , I found its IC50 recorded as Not Active
